# Assayed System: T1, rat µ opioid receptor (rat), P33535
# T1 chain: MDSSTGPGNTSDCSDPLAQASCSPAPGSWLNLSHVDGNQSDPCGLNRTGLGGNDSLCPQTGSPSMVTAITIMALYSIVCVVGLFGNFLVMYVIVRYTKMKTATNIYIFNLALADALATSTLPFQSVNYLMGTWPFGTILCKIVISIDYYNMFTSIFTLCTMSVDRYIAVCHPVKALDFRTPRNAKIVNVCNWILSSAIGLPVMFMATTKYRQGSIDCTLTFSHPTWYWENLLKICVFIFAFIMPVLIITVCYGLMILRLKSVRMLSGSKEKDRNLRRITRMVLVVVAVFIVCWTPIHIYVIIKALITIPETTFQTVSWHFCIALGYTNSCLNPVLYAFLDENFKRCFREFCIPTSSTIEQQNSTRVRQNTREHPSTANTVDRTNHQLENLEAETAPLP
# Measurement Notes: saturation binding, COS-7 membranes
Measurement Kind: Kd (nM)
Hi! Could you send only the number? It should be in nM, unit omitted.

In one line, give reported Kd of the entry YAGFG (modifications not checked) [[D-Ala2,MePhe4,Gly-ol5]enkephalin (DAMGO)] . 0.57
